B1: TTC32 (parent)
chain: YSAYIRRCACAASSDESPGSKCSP

variants of: B1; assay: protein stability index of a GFP-peptide fusion (GPS, HEK-293T) (PSI 1-6); higher = more stable; conditions: c terminus: a fixed tail appended;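 note: lentivirally expressed fusions sorted by FACS into six bins by GFP to DsRed ratio, PSI derived from sequencing read proportions per bin multiplied by bin number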
What protein stability index was measured for each of the following?
Give only the figure.

Enquiry: Quick one: protein stability index for S2P ?
Return: 2.59

Enquiry: Moving on to C8T
Return: 3.06

Enquiry: Moving on to E16I
Return: 1.82

Enquiry: Moving on to C10Y
Return: 2.17

Enquiry: Moving on to R7H
Return: 1.9

Enquiry: Moving on to R6F
Return: 2.64

Enquiry: Moving on to R7F
Return: 2.59

Enquiry: Moving on to S17M
Return: 2.2

Enquiry: Moving on to C8L
Return: 2.38

Enquiry: Moving on to S23P
Return: 2.02

Enquiry: Moving on to A3V
Return: 2.05

Source: the supplement of paper PMC10567573
